# Tested on: Human papillomavirus type 1a protein E7 (residues 44-93)
# Experiment Summary: small molecules binding HPV E7 44-93 – biochemical, small-molecule microarray, residues 44-93, 635 nm fluorescence, primary screen (AID 1108);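 also: E7 fragment applied at 1 µg/mL in TBST for 1 h at 4 C; score combines spot fluorescence with its signal to noise ratio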
# Condition Description: fluorescence 635 nm, higher = more signal
Experimental Readout: composite z-score
Please reply with the value in numeric form only.

CCCCCCc1nc(Cc2cc(OC)c(OC)c(OC)c2)cc2c1[Si](C(C)C)(C(C)C)OC2: -0.457

Would you mind telling me what composite z-score value was observed for CCCC[C@@H](O)C1=C(COc2ccccc2)C[C@H]2C(=O)N(Cc3ccccc3)C(=O)[C@H]2[C@H]1CO ?
0.207

Requested read-out: composite z-score. Entry: COc1ccc([Si](C)(C)[C@@H]2[C@@H](CCO)O[C@]3(C(=O)N(Cc4cccc(NC(=O)[C@H](C)O)c4)c4ccccc43)[C@H]2C)cc1
1.36

Query: composite z-score; subject: COC(=O)[C@@]1(Cc2ccc(OC)cc2)[C@H]2c3cc(C(=O)N(C)C)n(Cc4ccc(C)o4)c3C[C@H]2CN1C(=O)c1ccccc1
1.42

# input compound: CCCCC(O)C1C=CC2C(=O)N(C)C(=O)C2N1N(c1ccccc1)c1ccccc1 (stereo not given) ; wanted: its composite z-score
0.447

Please look up its composite z-score: C=CCN1Cc2ccccc2[C@@H]2OC(c3ccc(OCCCO)cc3)=N[C@]2(CC=C)C1=O
0.139

Name the recorded composite z-score for CC(C)C(CO)N1C(=O)[C@@H]2[C@H]3C(=O)OCC=C[C@H]3OC23C=CCN(c2ccc(Cl)cc2)C(=O)[C@@H]13 (stereo not given in full) .
-0.0683

Which measured composite z-score value corresponds to CCCC[C@@H](O)C1=C(COC)C[C@H]2C(=O)N(Cc3ccccc3)C(=O)[C@H]2[C@H]1CO ?
0.34

Which composite z-score is reported for this compound? NC(=O)NCC#Cc1ccc2c(c1)[C@]1(C(=O)N2)[C@H](C(=O)N2CCN(c3ncccn3)CC2)[C@H]2C(=O)O[C@H](c3ccccc3)[C@H](c3ccccc3)N2[C@@H]1c1ccc(O)cc1
1.23

Recorded composite z-score of CS(=O)(=O)CCOC(=O)C1=CC(c2ccc(CO)cc2)=CC(C2CC2)N(Cc2sc3ccccc3c2Cl)C=C1C(=O)OCCS(C)(=O)=O (stereo not given) , please.
0.491

GET /values?readout=composite z-score&item= CC(C)C(CO)N1C(=O)[C@@H]2C3C(=O)OCCC/C=C\[C@H]3OC23C=CCN(Cn2nnc4ccccc42)C(=O)[C@@H]13 (stereo not given in full)
1.32

Recorded composite z-score of COCCOC(=O)N1C(=O)[C@@]2(c3cc(C#CC4(O)CCCCCC4)ccc31)[C@H](C(=O)Nc1nc3ccccc3s1)[C@H]1C(=O)O[C@H](c3ccccc3)[C@H](c3ccccc3)N1[C@@H]2c1ccc(O)cc1 , please.
1.37

Entry C=C[C@@H](OC)[C@H](OC(=O)Nc1ccc(OC)cc1)c1ccc(O)c(F)c1 has what composite z-score?
0.392

Report composite z-score for CC(C)NC(=O)[C@@]1(c2ccc([N+](=O)[O-])cc2)CC(=O)N(C2CCCCC2)[C@@H]1c1ccc(CO)cc1 please.
1.46

// returns reported composite z-score for input CC1CC/C=C\[C@H]2OC34C=CCN(C(C)(C)C)C(=O)[C@H]3N(CCCCCO)C(=O)[C@@H]4C2C(=O)O1 (stereo not given in full)
-1.33
